Molecular target: Histamine H2 receptor (Cavia porcellus) (UniProt P47747)
Sequence (P47747 whole entry): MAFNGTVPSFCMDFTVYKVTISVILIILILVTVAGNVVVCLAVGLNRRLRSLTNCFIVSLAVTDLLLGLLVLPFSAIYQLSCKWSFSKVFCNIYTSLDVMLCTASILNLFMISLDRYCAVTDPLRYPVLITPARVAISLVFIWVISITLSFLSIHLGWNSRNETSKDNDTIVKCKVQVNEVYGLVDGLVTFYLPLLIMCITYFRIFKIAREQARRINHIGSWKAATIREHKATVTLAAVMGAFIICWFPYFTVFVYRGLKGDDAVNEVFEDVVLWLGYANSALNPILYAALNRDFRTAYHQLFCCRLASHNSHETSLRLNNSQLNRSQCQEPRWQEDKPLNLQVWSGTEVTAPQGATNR
Assay: Histamine H2 receptor agonism relative to histamine on isolated guinea pig right atrium
Type: functional, tissue-based
Settings: Cardiac atrium
readoutName: pD2

# molecule, pD2
records = [
    ("N=C(NCCCc1c[nH]cn1)NCCC(c1cccc(Cl)c1)c1ccccn1 (stereo unspecified)", 7.94),
    ("N=C(NCCCc1c[nH]cn1)NCCC(c1ccc(Br)cc1)c1ccccn1 (stereo unspecified)", 7.48),
    ("N=C(NCCCc1c[nH]cn1)NCCC(c1ccccc1)c1ccc(Cl)c(Cl)c1 (stereo unspecified)", 7.46),
    ("N=C(NCCCc1c[nH]cn1)NCCCC(c1ccc(F)cc1)c1ccccn1 (stereo unspecified)", 6.87),
    ("N=C(NCCCc1c[nH]cn1)NCCC(c1ccccn1)c1ccccc1F (stereo unspecified)", 7.46),
    ("N=C(NCCCc1c[nH]cn1)NCCC(c1ccc(C(F)(F)F)cc1)c1ccccn1 (stereo unspecified)", 7.76),
    ("N=C(NCCCc1c[nH]cn1)NCCC(c1ccccn1)c1ccccn1", 6.9),
    ("N/C(=N\\CCC(c1ccc(O)cc1)c1ccccn1)NCCCc1c[nH]cn1 (stereo unspecified)", 6.63),
    ("N=C(NCCCc1c[nH]cn1)NCCC(c1ccc(Cl)c(Cl)c1)c1ccccn1 (stereo unspecified)", 8.19),
    ("CN(CCC(c1ccc(F)cc1)c1ccccn1)C(=N)NCCCc1c[nH]cn1 (stereo unspecified)", 5.4),
    ("N=C(NCCCc1c[nH]cn1)NCCC(c1ccccn1)c1ccc(Cl)cc1Cl (stereo unspecified)", 7.72),
    ("N=C(NCCCc1c[nH]cn1)NCCC(c1ccccc1)c1ccc(F)cc1 (stereo unspecified)", 7.73),
    ("N=C(NCCCc1c[nH]cn1)NCCCC(c1ccccc1)c1ccccn1 (stereo unspecified)", 6.61),
    ("N=C(NCCCc1c[nH]cn1)NCCC(c1cccc(C(F)(F)F)c1)c1ccccn1 (stereo unspecified)", 7.43),
    ("N=C(NCCCc1c[nH]cn1)NCCC(c1ccc(Cl)cc1)c1ccccn1 (stereo unspecified)", 7.84),
    ("Cc1ccc(C(CC/N=C(\\N)NCCCc2c[nH]cn2)c2ccccn2)cc1 (stereo unspecified)", 7.71),
    ("N=C(NCCCc1c[nH]cn1)NCCC(c1cc(F)cc(F)c1)c1ccccn1 (stereo unspecified)", 8.05),
    ("N=C(NCCCc1c[nH]cn1)NCCC(c1ccc(F)cc1)c1cccnc1 (stereo unspecified)", 8.09),
    ("N=C(NC/C=C(\\c1ccc(F)cc1)c1ccccn1)NCCCc1c[nH]cn1", 7.47),
    ("N=C(NCCCc1c[nH]cn1)NCCC(c1ccc(F)cc1)c1ccccn1 (stereo unspecified) [ARPROMIDINE]", 8.01),
    ("N=C(NCCCc1c[nH]cn1)NCCC(c1ccccc1)c1ccccn1 (stereo unspecified)", 7.39),
    ("N=C(NCCCc1c[nH]cn1)NCCC(c1cc(Cl)cc(Cl)c1)c1ccccn1 (stereo unspecified)", 7.37),
    ("N=C(NCCCc1c[nH]cn1)NCCC(c1ccccn1)c1cccs1 (stereo unspecified)", 7.16),
    ("N=C(NCCCc1c[nH]cn1)NCCSC(c1ccccc1)c1ccccn1 (stereo unspecified)", 6.6),
    ("N=C(NCCCc1c[nH]cn1)NCCC(Cc1ccccc1)c1ccc(F)cc1 (stereo unspecified)", 6.17),
    ("N=C(NCCCc1c[nH]cn1)NCC(c1ccccc1)c1ccccn1 (stereo unspecified)", 6.35),
    ("COc1ccc(C(CC/N=C(\\N)NCCCc2c[nH]cn2)c2ccccn2)cc1 (stereo unspecified)", 7.44),
    ("N/C(=N\\CCC(c1cccc(N)c1)c1ccccn1)NCCCc1c[nH]cn1 (stereo unspecified)", 7.38),
    ("N/C(=N\\CCC(c1cccc([N+](=O)[O-])c1)c1ccccn1)NCCCc1c[nH]cn1 (stereo unspecified)", 6.91),
    ("N=C(NCCCc1c[nH]cn1)NCCC(c1cccc(F)c1)c1ccccn1 (stereo unspecified)", 7.88),
    ("N/C(=N\\CCC(O)(c1ccc(F)cc1)c1ccccn1)NCCCc1c[nH]cn1 (stereo unspecified)", 7.42),
]

Taken from ChEMBL document CHEMBL1124639.
